# Procedure summary: gradient 5% acetonitrile 3 min, to 50% in 2 min, to 85% in 15 min, held 3 min, 100 µL/min
# Condition description: column: Zorbax Extend-C18 2.1 x 50 mm; eluents: water / acetonitrile, 0.1% formic acid
Output YES for records whose RP-LC retention time is lower than 800 s, NO for records at or above 800 s.

>  <Compound>
Cc1ccc(NS(=O)(=O)c2cc3c(s2)CCN(C(=O)C2CCC2)C3)c(C)c1

>  <Class assignment>
NO

$$$$
>  <Compound>
Cc1nn(-c2ccccc2)c(-n2cccc2)c1CNC(=O)NCc1ccc(F)cc1

>  <Class assignment>
NO

$$$$
>  <Compound>
O=C(CN1CCN(Cc2ccc(F)cc2)C1=O)NCc1ccc(N2CCOCC2)cc1

>  <Class assignment>
YES

$$$$
>  <Compound>
Cc1csc(-c2cc(S(=O)(=O)Nc3ccc(Cl)cc3F)cn2CC(=O)N2CCCC2)n1

>  <Class assignment>
NO

$$$$
>  <Compound>
CCOc1nc2ccccc2nc1N1CCCC(C(=O)Nc2ccc(OC)c(Cl)c2)C1 (stereo not given)

>  <Class assignment>
NO

$$$$

Item CCc1ccc2[nH]c3c(c(=O)c2c1)CN(CC(=O)NCc1cccc(Cl)c1)CC3 : RP-LC retention time beneath 800 s, strictly? YES

Item CCC(=O)Nc1ccc2c(c1)Sc1ncccc1C(=O)N2CC : RP-LC retention time beneath 800 s, strictly? YES

Item Cc1cccc(CNC(=O)C2(C)Cn3cnc(C(=O)NC4CCCC4)c3C(=O)N2C2CC2)c1 (stereo not given) : RP-LC retention time beneath 800 s, strictly? YES

----------
# Procedure summary: gradient 5% acetonitrile 3 min, to 50% in 2 min, to 85% in 15 min, held 3 min, 100 µL/min
# Condition description: column: Zorbax Extend-C18 2.1 x 50 mm; eluents: water / acetonitrile, 0.1% formic acid
Returns y if the recorded RP-LC retention time is greater than or equal to 700 s, and n otherwise.

>  <Compound>
CCCCN(C)C(=O)C1CCN(c2nccc(C)n2)CC1

>  <Class assignment>
n

$$$$
>  <Compound>
CCCCN(C)C(=O)CCC(=O)Nc1ccc2nc(N3CCN(C)CC3)cc(C)c2c1

>  <Class assignment>
n

$$$$
>  <Compound>
O=C(CCc1nnn2c1CN(C(=O)c1ccccc1F)CC2)NC1CC1

>  <Class assignment>
n

$$$$
>  <Compound>
Cc1ccc(NC(=O)Cn2nc3cc(C)nc(N4CCCC4)n3c2=O)c(C)c1

>  <Class assignment>
y

$$$$
>  <Compound>
CC(C)(C)c1ccc(CN2CCC(OC3CCN(C4CCCC4)C3=O)CC2)cc1 (stereo not drawn)

>  <Class assignment>
y

$$$$
>  <Compound>
CN1C(=O)C2(CCN(C(=O)c3ccc(C#N)cc3)C2)c2ccccc21 (stereo not drawn)

>  <Class assignment>
y

$$$$

Textbook exercise: given the entry CC(C(=O)NCCN1CCOCC1)C1CCN(C(=O)c2cc3cc(Cl)ccc3[nH]2)CC1 (stereo not drawn) , state whether its RP-LC retention time is greater than or equal to 700 s. n

----------
Can you tell me RP-LC retention time for the items I'm about to list?
# Procedure summary: gradient 5% acetonitrile 3 min, to 50% in 2 min, to 85% in 15 min, held 3 min, 100 µL/min
# Condition description: column: Zorbax Extend-C18 2.1 x 50 mm; eluents: water / acetonitrile, 0.1% formic acid
Answers are plain numbers, in s.

List reported RP-LC retention time for each of these molecules:
1. Cn1c(CN2CCN(C(=O)NCc3ccco3)CC2)nc2cc(C(=O)N3CCCC3)ccc21
2. CC(=O)Nc1nnc(SCc2nnc(-c3ccccc3C)o2)s1
3. O=C(CN1CCN(C(=O)Nc2ccc(Br)cc2)CC1=O)NCCN1CCCCC1

1. 590
2. 740
3. 602

List reported RP-LC retention time for each of these molecules:
1. COC(=O)Cn1c(C2CC(=O)N(c3ccc(OC)cc3)C2)nc2ccccc21 (centres undefined)
2. CCN(Cc1ccccc1)C(=O)C(=O)c1c[nH]c2ccccc12
3. Cc1sc(NC(=O)C2CCCCC2)nc1-c1ccc2c(c1)NC(=O)CO2
4. Cc1cccc(S(=O)(=O)N2CC3CN(C(=O)CCC(C)C)CC(C2)O3)c1
5. COc1cc(OC)c(NC(=O)Cn2nc3n(c2=O)CCCCC3)cc1Cl

709
903
921
871
722

I have this molecule here, CN1C(=O)CO[C@@H](C(=O)Nc2cccc(F)c2)[C@@H]1c1ccccc1 , and I need its recorded RP-LC retention time. 782

----------
Can you tell me RP-LC retention time for the items I'm about to list?
# Procedure summary: gradient 5% acetonitrile 3 min, to 50% in 2 min, to 85% in 15 min, held 3 min, 100 µL/min
# Condition description: column: Zorbax Extend-C18 2.1 x 50 mm; eluents: water / acetonitrile, 0.1% formic acid
One number for each entry, in s.

Consider the following illustrative entries.
>  <Compound>
Cc1ccc(C)c(NC(=O)C2CCN(S(=O)(=O)c3cc(-c4noc(C)n4)cs3)CC2)c1

>  <Outcome measure>
RP-LC retention time

>  <Observed>
953

$$$$
>  <Compound>
Cc1nc2cc(-c3noc(COc4ccc(F)cc4)n3)ccc2o1

>  <Outcome measure>
RP-LC retention time

>  <Observed>
994

$$$$
>  <Compound>
CCCC(=O)O[C@]1(C(=O)CO)CC[C@H]2[C@@H]3CCC4=CC(=O)CC[C@]4(C)[C@H]3[C@@H](O)C[C@@]21C

>  <Outcome measure>
RP-LC retention time

>  <Observed>
1010

$$$$

List reported RP-LC retention time for each of these compounds:
1. CCOc1ccc(NC(=O)Cc2nnc3ccc(C(=O)Nc4ccccc4)cn23)cc1
2. CCN(CC)S(=O)(=O)c1ccc2c(c1)nnn2CCC(=O)N1CCN(c2ccccn2)CC1
3. Cc1ccc(S(=O)(=O)N2CC3CN(C(=O)COc4cccc(C)c4)CC(C2)O3)cc1
4. O=S(=O)(c1ccccc1Cl)N1CCC(c2noc(COCc3ccccc3)n2)CC1

798
616
928
1100

List reported RP-LC retention time for each of these compounds:
1. CCN1C(=O)S/C(=C\C(=O)O)C1=O
2. COc1ccc(C2C(C(=O)Nc3ccc4c(c3)OCO4)c3ccccc3C(=O)N2C)cc1 (stereo not given)
3. CCOC(=O)C1=C(CN2CCC(C(=O)OCC)CC2)NC(=O)NC1c1ccc(C)cc1 (stereo not given)
4. O=C(c1ccc(C(F)(F)F)s1)N1CCN(c2nnc3ccccn23)CC1

638
835
665
711

List reported RP-LC retention time for each of these compounds:
1. Cc1ccc(-c2[nH]c3[nH]c(=O)[nH]c(=O)c3c2C2C(=O)N(C)c3ccccc32)cc1 (stereo not given)
2. O=c1n(Cc2ccc(Cl)cc2)nc2ccc(S(=O)(=O)N3CCOCC3)cn12
3. CCc1nc(OCC(=O)Nc2ccc(Cl)c(Cl)c2)c2ccccc2n1
4. Cc1nn(C)cc1CN(C)C(=O)c1ccc(-c2ccccc2)cc1

[696, 676, 958, 738]

List reported RP-LC retention time for each of these compounds:
1. Fc1cc(F)cc(Cn2cccc2-c2nc(-c3ccncc3)no2)c1
2. CC(=O)Nc1ccc(OCC(O)CN2CCC(Cc3ccccc3)CC2)cc1 (stereo not given)

1. 1110
2. 577

List reported RP-LC retention time for each of these compounds:
1. CC(C)c1cccc2sc(NC(=O)C3CCCN(S(C)(=O)=O)C3)nc12 (stereo not given)
2. Cn1nc(C(=O)N2CCCC(C(=O)NC3CC3)C2)c2c1CCN(C(=O)c1ccccc1Cl)C2 (stereo not given)
3. NC(=O)[C@H](Cc1ccccc1)NC(=O)[C@H](Cc1ccccc1)NC(=O)[C@@H]1CCCN1C(=O)[C@@H](N)Cc1ccc(O)cc1
4. COC(=O)c1ccc(NC(=O)N(C)Cc2cc(=O)[nH]c3ccccc23)cc1
5. Cc1cccc(-c2nnc(-c3nc(NCc4cccnc4)c4ccccc4n3)o2)c1
6. O=C(NCC(=O)N1CCOCC1)c1c[nH]c2ccccc12

[965, 648, 678, 694, 691, 593]

List reported RP-LC retention time for each of these compounds:
1. COc1ccc(CN2C(=O)CN(C3CCCCC3)C(=O)C2c2cccs2)cc1 (stereo not given)
2. CCCn1cc(C(=O)NCCCN(C)C)c(S(=O)(=O)N2CCN(c3cccc(Cl)c3)CC2)n1
3. CCc1ccc(Oc2cc(N3CCC(C(=O)N4CCN(c5ccccn5)CC4)CC3)ncn2)cc1
4. CSc1ccc(-c2noc(Cc3nnc(-c4cc(F)cc(F)c4)o3)n2)cc1
5. CCc1nc(-c2csc(S(=O)(=O)N3CCCC(C(=O)Nc4ccccc4C)C3)c2)no1 (stereo not given)

915
758
689
1100
1010

List reported RP-LC retention time for each of these compounds:
1. O=C(CCc1nnn2c1CN(C(=O)Cc1c[nH]c3ccccc13)CC2)N1CCCC1
2. CCOc1ccc(C(=O)NC2CCN(c3cc(-c4cccs4)[nH]n3)C2)cc1OCC (stereo not given)

641
755

Taken from the METLIN SMRT retention time set (Domingo-Almenara et al. 2019).
